Test: promoters of myeloid differentiation in arrested cells, primary screen, cell-based, GFP/MAC1 double positive, flow cytometry, validation set (AID 588685);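 further: compound exposure lasts four days before antibody staining and flow analysis; 0% = DMSO wells and 100% = 5 µM fulvestrant positive control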
Details: ER-HoxA9 marrow cells, normalized: vehicle 0, fulvestrant 100
Active and inactive are the calls of the source.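 How the source made its calls: active means differentiation response of at least 50%, scaled between solvent and reference control, from cells with both markers; inactive means the rest.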
Labels: 1 for active, -1 for inactive

1) CNCCCN1c2ccccc2CCc2ccccc21 = -1
2) Cc1cccc(C2=N/C(=C\c3cccnc3)C(=O)O2)c1 = 1
3) CCOC(=O)NN1C(=O)c2ccccc2NC1c1ccc(OC)c(OC)c1 (stereo not drawn) = -1
4) CCOC(=O)[C@H](CCc1ccccc1)N[C@@H](C)C(=O)N1CCC[C@H]1C(=O)O = -1
5) CN1CCC(=C2c3ccccc3C=Cc3ccccc32)CC1 = -1
6) N#Cc1c2c(c(-c3ccccc3)[nH]c1=O)CCCC2 = -1
7) Cc1nnc(SCC(=O)N2CCCC(C(=O)c3ccc(Cl)cc3)C2)o1 (stereo not drawn) = -1
8) COc1cc(OC)cc(C(=O)N[C@@H](CCSC)c2nc3ccccc3[nH]2)c1 = -1
9) O=C(Nc1ccc(Oc2c(F)c(F)c(F)c(F)c2F)cc1)OC1CCN2Cc3ccccc3N=C12 (stereo not drawn) = 1
10) COc1ccc2oc(=O)c(C(=O)N3CCN(c4ccccc4)CC3)cc2c1 = -1
11) CN1[C@@H](CC(=O)c2ccccc2)CCC[C@H]1C[C@H](O)c1ccccc1 = -1
12) CCC(=O)Oc1ccc(/C(CC)=C(\CC)c2ccc(OC(=O)CC)cc2)cc1 = -1
13) C[N+]12CCC(CC1)C(OC(=O)C(O)(c1ccccc1)c1ccccc1)C2 (stereo not drawn) = -1
14) CCCCNC(=O)NS(=O)(=O)c1ccc(C)cc1 = -1
15) Cc1csc(CCc2nc(C)cs2)n1 = -1
16) CC(C)COc1ccc(Cc2cnc(N)nc2N)cc1 = 1
17) O=C(NCCc1cccc(F)c1)[C@@H]1CSC2c3ccccc3C(=O)N21 (stereo partly drawn) = -1
18) CCCNC(=O)NS(=O)(=O)c1ccc(Cl)cc1 = -1
19) O=C1N=c2ccccc2=C1c1[nH]c(=S)[nH]c1O = -1
20) O=C1OC(=O)C2C1[C@@H]1CC[C@H]2O1 (stereo partly drawn) = -1
21) C#C[C@]1(O)CC[C@H]2[C@@H]3CCC4=C(CCC(=O)C4)[C@H]3CC[C@@]21C = -1
22) COc1ccc2[nH]cc(C(=O)CCl)c2c1 = -1
23) CC1=CC(C)(C)N2C(=O)C3(NCCc4c3[nH]c3ccccc43)c3cc(C)cc1c32 (stereo not drawn) = -1

# credit: PubChem BioAssay
